Value source: the supplement of paper PMC10567573

B1: OAS1 (parent)
chain: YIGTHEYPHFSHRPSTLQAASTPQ

Variants of: B1
Assay: protein stability index of a GFP-peptide fusion (GPS, HEK-293T) (PSI 1-6); higher = more stable;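 note: lentivirally expressed fusions sorted by FACS into six bins by GFP to DsRed ratio, PSI derived from sequencing read proportions per bin multiplied by bin number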
Settings: c terminus: a fixed tail appended
endpoint: protein stability index
I'd appreciate a reply containing only the number, no unit.

Qu. Fill in the blank: the reported protein stability index of `S15H` is ____.
Ans. 1.82

Qu. Fill in the blank: the reported protein stability index of `F10I` is ____.
Ans. 2.27

Qu. Fill in the blank: the reported protein stability index of `H5C` is ____.
Ans. 1.75

Qu. Fill in the blank: the reported protein stability index of `P23R` is ____.
Ans. 1.86

Qu. Fill in the blank: the reported protein stability index of `H9P` is ____.
Ans. 1.44

Qu. Fill in the blank: the reported protein stability index of `H5E` is ____.
Ans. 2.53

Qu. Fill in the blank: the reported protein stability index of `H9W` is ____.
Ans. 3.41

Qu. Fill in the blank: the reported protein stability index of `T22V` is ____.
Ans. 1.93

Qu. Fill in the blank: the reported protein stability index of `G3E` is ____.
Ans. 1.8

Qu. Fill in the blank: the reported protein stability index of `H5S` is ____.
Ans. 1.94

Qu. Fill in the blank: the reported protein stability index of `T16Q` is ____.
Ans. 2.3

Qu. Fill in the blank: the reported protein stability index of `P14S` is ____.
Ans. 1.64

Qu. Fill in the blank: the reported protein stability index of `A20S` is ____.
Ans. 2.11

Qu. Fill in the blank: the reported protein stability index of `P14H` is ____.
Ans. 2.1

Qu. Fill in the blank: the reported protein stability index of `T4G` is ____.
Ans. 2.27

Qu. Fill in the blank: the reported protein stability index of `S21N` is ____.
Ans. 1.85

Qu. Fill in the blank: the reported protein stability index of `A19G` is ____.
Ans. 1.98

Qu. Fill in the blank: the reported protein stability index of `A20P` is ____.
Ans. 1.97

Qu. Fill in the blank: the reported protein stability index of `T22F` is ____.
Ans. 1.93

Qu. Fill in the blank: the reported protein stability index of `Q24F` is ____.
Ans. 1.77

Qu. Fill in the blank: the reported protein stability index of `H5K` is ____.
Ans. 2.47

Qu. Fill in the blank: the reported protein stability index of `Y1K` is ____.
Ans. 3.52

Qu. Fill in the blank: the reported protein stability index of `Y7A` is ____.
Ans. 2.23

Qu. Fill in the blank: the reported protein stability index of `H9Y` is ____.
Ans. 2.83

Qu. Fill in the blank: the reported protein stability index of `Q18D` is ____.
Ans. 1.71

Qu. Fill in the blank: the reported protein stability index of `P8K` is ____.
Ans. 2.08

Qu. Fill in the blank: the reported protein stability index of `Q18A` is ____.
Ans. 2.85
